- System: anti-pregabalin antibody
- procedure.summary: Specificity of the homogeneous enzyme immunoassay (cross-reactivity)
- Format: binding, rabbit
- details: compound at 200 μg/mL added to pooled pregabalin-free human urine; Siemens Viva-E System
Please use YES for % Crossreactivity under 0.006% and NO for everything else, ties included.

A selection of reference data follows.
>>> print(df.to_string())
      smiles_representation  group_label
0        CSCC[C@H](N)C(=O)O           NO
1           C[C@H](N)C(=O)O          YES
2    NC(=O)CC[C@H](N)C(=O)O          YES
3  C[C@@H](O)[C@H](N)C(=O)O          YES

Quick check: does N[C@@H](CC(=O)O)C(=O)O have % Crossreactivity under 0.006%?
YES

Check if % Crossreactivity falls below 0.006% for NCCCC[C@H](N)C(=O)O .
YES

Numbers sourced from patent US12656356B2.
